Where these numbers come from: paper PMC11537819

Exercise: for every item that follows, state its recorded pIC50.
Interpret pIC50 as the negative base-10 log of the concentration measured in mol/L.

Write down the reported pIC50 (system: AKR1C2 (Homo sapiens)) of COc1ccc2cc(C(=O)O)c(=O)oc2c1 6.17

Write down the reported pIC50 (system: AKR1C2 (Homo sapiens)) of CCN(CC)C(=O)c1cc2ccc(O)cc2oc1=O 7.05

Write down the reported pIC50 (system: AKR1C2 (Homo sapiens)) of O=c1oc2cc(O)ccc2cc1S(=O)(=O)c1ccccc1 6.86

Write down the reported pIC50 (system: AKR1C2 (Homo sapiens)) of O=C(NCc1ccc(C(F)(F)F)cc1)c1cc2ccc(O)cc2oc1=O 6.89

Write down the reported pIC50 (system: AKR1C2 (Homo sapiens)) of CCN(CC)C(=O)C1CCCN1C(=O)c1cc2ccc(O)cc2oc1=O (stereo not drawn) 7.00

Write down the reported pIC50 (system: AKR1C2 (Homo sapiens)) of O=C(c1cc2ccc(O)cc2oc1=O)N1CCCCC1 7.05

Write down the reported pIC50 (system: AKR1C2 (Homo sapiens)) of CCOC(=O)c1cc2ccc(OCC=C(C)C)cc2oc1=O 5.80

Write down the reported pIC50 (system: AKR1C2 (Homo sapiens)) of O=C(NCc1ccc(F)cc1)c1cc2ccc(O)cc2oc1=O 7.00

Write down the reported pIC50 (system: AKR1C2 (Homo sapiens)) of O=C(NCCc1ccccc1)c1cc2ccc(O)cc2oc1=O 7.10
